- system: UniProt Q9NYA1
- Sequence (Q9NYA1 whole entry): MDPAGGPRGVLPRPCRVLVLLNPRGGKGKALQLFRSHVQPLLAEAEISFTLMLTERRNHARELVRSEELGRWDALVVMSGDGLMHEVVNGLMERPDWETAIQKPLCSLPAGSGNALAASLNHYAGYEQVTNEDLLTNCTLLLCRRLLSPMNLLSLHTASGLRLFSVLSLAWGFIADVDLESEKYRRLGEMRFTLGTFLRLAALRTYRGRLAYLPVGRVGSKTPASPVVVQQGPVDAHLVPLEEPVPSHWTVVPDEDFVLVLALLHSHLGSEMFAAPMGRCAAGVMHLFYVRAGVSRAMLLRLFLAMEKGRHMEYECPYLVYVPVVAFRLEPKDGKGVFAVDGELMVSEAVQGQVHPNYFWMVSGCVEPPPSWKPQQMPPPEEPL
- assay explanation: Inhibition of recombinant sphingosine kinase 1 (unknown origin) expressed in HEK293 cells using sphingosine as substrate at 50 uM after 30 mins relative to control in presence of [gamma32P]-ATP
Activity calls are given as the source filed them. No cut-off for these calls is given here.
property label: inhibition

Solved entries:
- structure: "CCCCCCCCc1ccc(CCN2CCC(F)CC2)cc1"
  system: "UniProt Q9NYA1"
  measured: "inactive"
- structure: "Cc1ccc(CCN2CCC(N=[N+]=[N-])CC2)cc1"
  system: "UniProt Q9NYA1"
  measured: "inactive"
- structure: "CCCCCCCCc1ccc(C(=O)Nc2ccc(CCO)cc2)cc1"
  system: "UniProt Q9NYA1"
  measured: "inactive"
- structure: "CCCCCCCCc1ccc(CCc2ccc[n+](C)c2)cc1"
  system: "UniProt Q9NYA1"
  measured: "inactive"
- structure: "CCCCCCCCCCCCc1ccc(C(=O)N2CCC(O)CC2)cc1"
  system: "UniProt Q9NYA1"
  measured: "inactive"
- structure: "CCCCCCCCc1ccc(CCN2CC[C@H](O)C2)cc1"
  system: "UniProt Q9NYA1"
  measured: "Active"
- structure: "CCCCCCCCc1cn(-c2ccc(O)cc2)nn1"
  system: "UniProt Q9NYA1"
  measured: "inactive"
- structure: "CCCCCCCCc1ccc(C(=O)N2CCC(O)CC2)cc1"
  system: "UniProt Q9NYA1"
  measured: "inactive"
- structure: "CCCCCCCCCCCCc1ccc(C(=O)N2CCC[C@H]2CO)cc1"
  system: "UniProt Q9NYA1"
  measured: "inactive"
- structure: "CCCCCCCCc1ccc(CCN2CCC(N=[N+]=[N-])CC2)cc1"
  system: "UniProt Q9NYA1"
  measured: "inactive"

Identify inhibition associated with the compound Cc1ccc(CCN2CCC(O)CC2)cc1 inactive

Identify inhibition associated with the compound CCCCc1cn(-c2ccc(CC[N+]3(C)CCCCC3)cc2)nn1 inactive

Identify inhibition associated with the compound CCCCCCCCc1ccc(CCc2cccnc2)cc1 inactive

Identify inhibition associated with the compound CCCCCCCCc1ccc(CCCCN2CCC(O)CC2)cc1 Active

Identify inhibition associated with the compound CCCCCCCCc1cn(-c2ccc(CCN3CCCCC3)cc2)nn1 inactive

Identify inhibition associated with the compound CCCCCCCCc1ccc(CCN2CC[C@@H](O)C2)cc1 Active

Identify inhibition associated with the compound CCCCCCCCCCCCc1ccc(CCN2CCC(N)CC2)cc1 inactive

Identify inhibition associated with the compound CCCCCc1cn(-c2ccc(CCN3CCC(O)CC3)cc2)nn1 inactive

Identify inhibition associated with the compound CCCCCCCCc1ccc(C(=O)NCc2ccncc2)cc1 inactive

Identify inhibition associated with the compound CCCCCCCCc1cn(-c2ccc(CCN3CCC(O)CC3)cc2)nn1 Active
